systemTested: T1, Myo5, Q04439
T1 sequence (Q04439 1072-1160, looked up): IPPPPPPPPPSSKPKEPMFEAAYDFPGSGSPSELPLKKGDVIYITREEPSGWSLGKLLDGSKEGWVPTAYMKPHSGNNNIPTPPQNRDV
assayName: SPOT array
runConditions: median of control spots 471
quantityKind: SPOT intensity
One number for each entry.

VQPTAAPATPPRHIS	0
QGYPRQPQRPQRYHP	0
NGRRRPKFRVQLSGN	2

Please state SPOT intensity for every binder in the list that follows.
1. QHQQRQPKRPKRYSL
2. SPLGAPPPPPHKDHL
3. GDHPKGPPPPPPPPD
4. KRRAPPPVPKKPSSR

stdout:
[2, 81, 262, 144]
